Assay: Inhibition of Na(+)/K(+) ATPase in pig cerebral cortex assessed as release of inorganic phosphate after 15 mins by colorimetric method
observation-type: IC50 (µM)
Write down the numeric answer in µM and omit the unit.

Noted for `C[C@]12CC[C@H](O)C[C@H]1CC[C@@H]1[C@@H]2CC[C@]2(C)[C@@H](c3ccc(=O)oc3)CC[C@]12O` : its IC50 reads 0.011

* * *

# log10 of IC50 annotations
Tested on: HepG2
Experiment: Cytotoxicity against human HepG2 cells after 24 hrs by MTT assay
Type: functional, cell-based
Conditions: HepG2, 24 h
Recorded IC50 (log10, µM)

Solved entries (count: 2):
C[C@]12CC[C@H](O)C[C@@]1(O)CC[C@@H]1[C@@H]2CC[C@]2(C)[C@@H](c3ccc(=O)oc3)CC[C@]12O [TELOCINOBUFAGIN] : 0.38
C[C@]12CC[C@H](O)C[C@H]1CC[C@@H]1[C@@H]2CC[C@]2(C)[C@@H](c3ccc(=O)oc3)C[C@H]3O[C@]132 [BUFOGENIN] : 1.64

Measured log10 of IC50 of `C=CC1=CO[C@]23C[C@H](OC(C)=O)[C@H]1[C@@]2(C)CC[C@H]1[C@H]3CC[C@@H]2C[C@@H](O)CC[C@@]21C` : 1.81

Memo: C[C@]12CC[C@H](O)C[C@H]1CC[C@@H]1[C@@H]2CC[C@]2(C)[C@@H](c3ccc(=O)oc3)CC[C@]12O [BUFALIN] , reported log10 of IC50: -0.22

Recorded result, CC(=O)O[C@H]1[C@H]2O[C@]23[C@@H]2CC[C@@H]4C[C@@H](O)CC[C@]4(C)[C@H]2CC[C@]3(C)[C@H]1c1ccc(=O)oc1 [CINOBUFAGIN] , log10 of IC50: 0.74

// log10 of IC50 value for CC(=O)O[C@H]1C[C@]2(O)[C@@H]3CC[C@@H]4C[C@@H](O)CC[C@]4(C)[C@H]3CC[C@]2(C)[C@H]1c1ccc(=O)oc1 [BUFOTALIN] : -0.30

get_value(item= `C=CC1=CO[C@]23CC[C@H]1[C@@]2(C)CC[C@H]1[C@H]3CC[C@]2(O)C[C@@H](O)CC[C@]12C` , readout=log10 of IC50) returns 1.84

* * *

Assay: Cytotoxicity against KM mouse splenic lymphocytes
Conditions: Splenic lymphocyte
pIC50: −log10 of the molar value.
pIC50 values for the compounds below.

C=CC1=CO[C@]23CC[C@H]1[C@@]2(C)CC[C@H]1[C@H]3CC[C@]2(O)C[C@@H](O)CC[C@]12C : 4.10
C=CC1=CO[C@]23C[C@H](OC(C)=O)[C@H]1[C@@]2(C)CC[C@H]1[C@H]3CC[C@@H]2C[C@@H](O)CC[C@@]21C : < 4.00
C[C@@H]1O[C@@]12[C@@H]1O[C@@H]3C[C@H]2[C@@]2(C)CC[C@H]4[C@@H](CC[C@@H]5C[C@@H](O)CC[C@@]54C)[C@@]32O1 : < 4.00
C/C=C(\C=O)[C@H]1[C@@H](OC(C)=O)[C@H]2O[C@]23[C@@H]2CC[C@@H]4C[C@@H](O)CC[C@]4(C)[C@H]2CC[C@]13C : < 4.00
COC(=O)CCC(=O)C1=CC=C2[C@@H]3CC[C@@H]4C[C@@H](O)CC[C@]4(C)[C@H]3CC[C@]12C : < 4.00

Summary for this compound, C[C@]12CC[C@H](O)C[C@H]1CC[C@@H]1[C@@H]2CC[C@]2(C)[C@@H](c3ccc(=O)oc3)C[C@H]3O[C@]132 [BUFOGENIN] : pIC50 is < 4.00

* * *

System: HepG2
Assay: Cytotoxicity against human HepG2 cells after 24 hrs by MTT assay
Assay type: functional, cell-based
Details: HepG2, 24 h
Documented IC50 across a set of compounds

C[C@@H]1O[C@@]12[C@@H]1O[C@@H]3C[C@H]2[C@@]2(C)CC[C@H]4[C@@H](CC[C@@H]5C[C@@H](O)CC[C@@]54C)[C@@]32O1 : > 100 µM
COC(=O)CCC(=O)C1=CC=C2[C@@H]3CC[C@@H]4C[C@@H](O)CC[C@]4(C)[C@H]3CC[C@]12C : > 100 µM

Then there is this compound:
Record summary for `C/C=C(\C=O)[C@H]1[C@@H](OC(C)=O)[C@H]2O[C@]23[C@@H]2CC[C@@H]4C[C@@H](O)CC[C@]4(C)[C@H]2CC[C@]13C` : reported IC50 = > 26.8 µM
